# target desc: STK4 (human)
# protocol notes: radiometric filter-binding kinase assay, Kinase HotSpot
# protocol conditions: compound 0.5 µM; ATP 10 µM
The reader will find reported residual activity values listed item by item below.
observed property: residual activity (%)

# compound, data value
data = [
    ("Cc1ccc(NC(=O)c2ccc(CN3CCN(C)CC3)cc2)cc1Nc1nc(-c2cccnc2)cs1", 101),
    ("CC(C)(C)c1nc2c3ccc(F)cc3c3c(=O)[nH]ccc3c2[nH]1", 6.84),
    ("O=C(NC(NC(=S)Nc1ccc(F)c([N+](=O)[O-])c1)C(Cl)(Cl)Cl)C(c1ccccc1)c1ccccc1 (stereo not given)", 96.2),
    ("CC(C)[C@H](CO)Nc1nc(Nc2cccc(Cl)c2)c2ncn(C(C)C)c2n1", 87.7),
    ("C#Cc1cccc(Nc2ncnc3cc(OCCOC)c(OCCOC)cc23)c1", 97.4),
]

Value source: the kinase profiling compilation of Christmann-Franck et al. (2016)
